Provide the recorded IC50 for the entries that follow.
Assay: Antioxidant activity assessed as ABTS cation radical scavenging activity measured after 6 mins
Conditions: ABTS cation radical
Just the number in µM, nothing appended.

-- ask Item under review: `O=C(Nc1nc(-c2cc3ccccc3o2)cs1)Nc1ccccc1F` . Reported IC50?
-- reply 2.63

-- ask What does the data say about its IC50? Entry: `O=C(Nc1nc(-c2cc3cc(Br)ccc3o2)cs1)Nc1ccccc1[N+](=O)[O-]`
-- reply 166

* * *

Experiment: Selectivity index, ratio of IC50 for horse serum butyrylcholinesterase to IC50 for electric eel acetylcholinesterase
attribute-measured: Ratio IC50
No unit in the answer, please; the number alone is enough.

-- ask I would be grateful if you could share the reported Ratio IC50 for `COc1ccccc1NC(=O)Nc1nc(-c2cc3ccccc3o2)cs1` .
-- reply 1.33

-- ask Can you share its Ratio IC50? I mean this molecule: `O=C(Nc1ccc([N+](=O)[O-])cc1)Nc1nc(-c2cc3ccccc3o2)cs1`
-- reply 0.66

-- ask Could you tell me which Ratio IC50 is on file for `O=C(Nc1ccc(F)cc1)Nc1nc(-c2cc3cc([N+](=O)[O-])ccc3o2)cs1` ?
-- reply 1.16

-- ask Using the record for `Cc1ccc(NC(=O)Nc2nc(-c3cc4cc(Br)ccc4o3)cs2)cc1` , report its Ratio IC50.
-- reply 0.17

-- ask What does the data say about its Ratio IC50? Entry: `O=C(Nc1cccc(Cl)c1)Nc1nc(-c2cc3ccccc3o2)cs1`
-- reply 2.22

-- ask Field request: Ratio IC50 | item: `O=C(Nc1ccc([N+](=O)[O-])cc1)Nc1nc(-c2cc3cc(Br)ccc3o2)cs1`
-- reply 0.65

-- ask I have this molecule here, `O=C(Nc1ccccc1)Nc1nc(-c2cc3cc([N+](=O)[O-])ccc3o2)cs1` , and I need its recorded Ratio IC50.
-- reply 0.51

-- ask // query Ratio IC50 value for entry `O=C(Nc1ccc(F)cc1)Nc1nc(-c2cc3cc(Br)ccc3o2)cs1`
-- reply 1.81

-- ask What measured Ratio IC50 goes with `O=C(Nc1ccccc1)Nc1nc(-c2cc3cc(Br)ccc3o2)cs1` ?
-- reply 1.5

-- ask Form field: reported Ratio IC50 of `O=C(Nc1ccc(I)cc1)Nc1nc(-c2cc3ccccc3o2)cs1`
-- reply 1.93

-- ask Recorded Ratio IC50 of `O=C(Nc1cccc([N+](=O)[O-])c1)Nc1nc(-c2cc3cc(Br)ccc3o2)cs1` , please.
-- reply 4.53

-- ask # query: Ratio IC50 of entry `COc1cccc(NC(=O)Nc2nc(-c3cc4ccccc4o3)cs2)c1`
-- reply 1.22

* * *

Test: Antioxidant activity assessed as ABTS cation radical scavenging activity measured after 6 mins
attribute-measured: pIC50
Keep it numeric: pIC50 is minus log10 of the concentration in mol/L.

-- ask Which pIC50 reading was recorded for the compound `O=C(Nc1cccc([N+](=O)[O-])c1)Nc1nc(-c2cc3ccccc3o2)cs1` ?
-- reply 5.90

* * *

Test: Antioxidant activity assessed as ABTS cation radical scavenging activity measured after 6 mins
Conditions: ABTS cation radical
Would you mind telling me the reported IC50 of each entry?
The response must be a number in µM with no trailing unit.

-- ask Fill blank: measured IC50 of the compound `COc1ccc(NC(=O)Nc2nc(-c3cc4cc([N+](=O)[O-])ccc4o3)cs2)cc1` is ____.
-- reply 121

-- ask What does the data say about its IC50? Entry: `O=C(Nc1ccc(F)cc1)Nc1nc(-c2cc3cc([N+](=O)[O-])ccc3o2)cs1`
-- reply 123

-- ask Given the compound `O=C(Nc1ccc(Cl)cc1)Nc1nc(-c2cc3cc([N+](=O)[O-])ccc3o2)cs1` , what is its reported IC50?
-- reply 117

* * *

Assay: Selectivity index, ratio of IC50 for horse serum butyrylcholinesterase to IC50 for electric eel acetylcholinesterase
Give MET when the value for Ratio IC50 is at least 1. Give NOT MET when it is less.

-- ask Quick check: does `O=C(Nc1ccc(F)cc1)Nc1nc(-c2cc3ccccc3o2)cs1` have Ratio IC50 greater than or equal to 1?
-- reply NOT MET

-- ask Does `O=C(Nc1nc(-c2cc3ccccc3o2)cs1)Nc1ccccc1[N+](=O)[O-]` have a reported Ratio IC50 of at least 1?
-- reply MET

-- ask Answer whether Ratio IC50 of `O=C(Nc1ccc(Cl)cc1)Nc1nc(-c2cc3cc(Br)ccc3o2)cs1` is greater than or equal to 1.
-- reply MET

-- ask Does `Cc1ccc(NC(=O)Nc2nc(-c3cc4ccccc4o3)cs2)cc1` have a reported Ratio IC50 of at least 1?
-- reply MET

-- ask Please check the record `COc1ccc(NC(=O)Nc2nc(-c3cc4cc(Br)ccc4o3)cs2)cc1` and state if its Ratio IC50 is at or above 1.
-- reply NOT MET

-- ask Kindly determine if Ratio IC50 recorded for `O=C(Nc1nc(-c2cc3cc(Br)ccc3o2)cs1)Nc1ccccc1[N+](=O)[O-]` is above or exactly 1.
-- reply NOT MET

-- ask Exam item: decide whether the reported Ratio IC50 for `O=C(Nc1ccc(I)cc1)Nc1nc(-c2cc3cc(Br)ccc3o2)cs1` is at least 1.
-- reply MET

-- ask Textbook exercise: given the entry `O=C(Nc1ccc(Cl)cc1)Nc1nc(-c2cc3ccccc3o2)cs1` , state whether its Ratio IC50 is greater than or equal to 1.
-- reply NOT MET

-- ask Given `O=C(Nc1nc(-c2cc3ccccc3o2)cs1)Nc1ccccc1F` , state whether its Ratio IC50 is at least 1.
-- reply MET

-- ask Dear colleague, could you confirm whether `O=C(Nc1ccc(Br)cc1)Nc1nc(-c2cc3cc(Br)ccc3o2)cs1` has Ratio IC50 at or above 1?
-- reply MET

-- ask For this compound, is measured Ratio IC50 1 or higher? `O=C(Nc1ccc(Cl)cc1)Nc1nc(-c2cc3cc([N+](=O)[O-])ccc3o2)cs1`
-- reply NOT MET

-- ask Please check the record `O=C(Nc1cccc(F)c1)Nc1nc(-c2cc3cc(Br)ccc3o2)cs1` and state if its Ratio IC50 is at or above 1.
-- reply MET

-- ask Ratio IC50 >= 1 for `O=C(Nc1ccc(Br)cc1)Nc1nc(-c2cc3ccccc3o2)cs1` ?
-- reply MET

-- ask Please tell me: is the compound `O=C(Nc1ccc(Cl)c(Cl)c1)Nc1nc(-c2cc3ccccc3o2)cs1` at or over 1 in terms of Ratio IC50?
-- reply MET

-- ask Hi team, for `COc1cccc(NC(=O)Nc2nc(-c3cc4cc(Br)ccc4o3)cs2)c1` , is the recorded Ratio IC50 at or above 1?
-- reply NOT MET

-- ask Please tell me: is the compound `O=C(Nc1cccc(F)c1)Nc1nc(-c2cc3ccccc3o2)cs1` at or over 1 in terms of Ratio IC50?
-- reply NOT MET

-- ask Can `O=C(Nc1cccc([N+](=O)[O-])c1)Nc1nc(-c2cc3ccccc3o2)cs1` be said to have Ratio IC50 at or above 1?
-- reply NOT MET

-- ask Is it the case that `COc1ccc(NC(=O)Nc2nc(-c3cc4cc([N+](=O)[O-])ccc4o3)cs2)cc1` has Ratio IC50 reaching or exceeding 1?
-- reply MET

-- ask Kindly determine if Ratio IC50 recorded for `COc1ccccc1NC(=O)Nc1nc(-c2cc3cc(Br)ccc3o2)cs1` is above or exactly 1.
-- reply MET

-- ask Please check the record `O=C(Nc1ccc(I)cc1)Nc1nc(-c2cc3cc([N+](=O)[O-])ccc3o2)cs1` and state if its Ratio IC50 is at or above 1.
-- reply NOT MET

* * *

Target: Cholinesterase (Equus caballus, UniProt P81908)
Sequence (P81908 whole entry): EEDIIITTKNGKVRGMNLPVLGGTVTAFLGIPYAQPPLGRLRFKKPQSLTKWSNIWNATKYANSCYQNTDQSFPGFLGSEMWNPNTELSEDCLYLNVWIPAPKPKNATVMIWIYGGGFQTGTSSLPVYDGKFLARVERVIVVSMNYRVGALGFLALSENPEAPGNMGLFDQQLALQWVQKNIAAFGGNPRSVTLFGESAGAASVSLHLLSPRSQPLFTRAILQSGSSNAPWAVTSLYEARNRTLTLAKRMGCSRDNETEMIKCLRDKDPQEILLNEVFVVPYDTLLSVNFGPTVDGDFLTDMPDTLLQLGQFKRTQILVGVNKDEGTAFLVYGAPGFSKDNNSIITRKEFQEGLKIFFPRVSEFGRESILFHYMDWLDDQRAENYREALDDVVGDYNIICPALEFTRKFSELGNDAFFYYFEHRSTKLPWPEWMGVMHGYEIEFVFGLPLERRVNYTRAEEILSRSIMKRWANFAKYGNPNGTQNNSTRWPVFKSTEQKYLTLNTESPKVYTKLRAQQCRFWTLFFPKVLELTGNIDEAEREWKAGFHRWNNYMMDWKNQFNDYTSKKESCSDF
Assay: Inhibition of horse serum butyrylcholinesterase using butyrylthiocholine iodide as substrate preincubated for 15 mins followed by substrate addition by Ellman's method
One threshold, 30 µM, splits the recorded IC50 values: lower ones are Met, equal or higher ones are Not met.

-- ask Please let me know if `Cc1ccc(NC(=O)Nc2nc(-c3cc4cc(Br)ccc4o3)cs2)cc1` shows IC50 below 30 µM.
-- reply Met

-- ask I'd appreciate it if you could check whether `O=C(Nc1cccc(Cl)c1)Nc1nc(-c2cc3cc(Br)ccc3o2)cs1` has IC50 smaller than 30 µM.
-- reply Met

-- ask Criterion: IC50 strictly below 30 µM. Is it met by `O=C(Nc1nc(-c2cc3ccccc3o2)cs1)Nc1ccccc1F` ?
-- reply Not met

-- ask Criterion: IC50 strictly below 30 µM. Is it met by `COc1ccc(NC(=O)Nc2nc(-c3cc4cc(Br)ccc4o3)cs2)cc1` ?
-- reply Not met

-- ask Identify whether the compound `Cc1ccc(NC(=O)Nc2nc(-c3cc4ccccc4o3)cs2)cc1` records IC50 below 30 µM.
-- reply Not met

-- ask Report whether reported IC50 is lower than 30 µM (strictly) for `O=C(Nc1ccccc1)Nc1nc(-c2cc3cc([N+](=O)[O-])ccc3o2)cs1`
-- reply Met

-- ask Does `O=C(Nc1cccc(Cl)c1)Nc1nc(-c2cc3ccccc3o2)cs1` have IC50 strictly under 30 µM?
-- reply Met

-- ask For `O=C(Nc1ccc(Br)cc1)Nc1nc(-c2cc3cc([N+](=O)[O-])ccc3o2)cs1` , is the recorded IC50 below the cut-off of 30 µM?
-- reply Not met

-- ask Identify whether the compound `COc1ccc(NC(=O)Nc2nc(-c3cc4cc([N+](=O)[O-])ccc4o3)cs2)cc1` records IC50 below 30 µM.
-- reply Not met

-- ask Here's an entry: `O=C(Nc1ccc([N+](=O)[O-])cc1)Nc1nc(-c2cc3cc([N+](=O)[O-])ccc3o2)cs1` . Is its IC50 below 30 µM?
-- reply Met

-- ask Criterion: IC50 strictly below 30 µM. Is it met by `O=C(Nc1nc(-c2cc3cc(Br)ccc3o2)cs1)Nc1ccccc1[N+](=O)[O-]` ?
-- reply Met

-- ask Does the reported IC50 of the following compound sit strictly below 30 µM? `O=C(Nc1cccc(F)c1)Nc1nc(-c2cc3cc(Br)ccc3o2)cs1`
-- reply Not met

-- ask API: query returns whether the compound falls strictly under 30 µM in IC50. Query: `O=C(Nc1ccc(I)cc1)Nc1nc(-c2cc3ccccc3o2)cs1`
-- reply Not met

-- ask Given the entry `O=C(Nc1ccc(Cl)c(Cl)c1)Nc1nc(-c2cc3ccccc3o2)cs1` , would its reported IC50 be below 30 µM?
-- reply Not met

-- ask Just wondering, is IC50 of `O=C(Nc1ccc([N+](=O)[O-])cc1)Nc1nc(-c2cc3ccccc3o2)cs1` below 30 µM?
-- reply Met

-- ask Strictly below 30 µM in IC50? `O=C(Nc1ccc(Cl)cc1)Nc1nc(-c2cc3ccccc3o2)cs1`
-- reply Not met

-- ask Regarding `O=C(Nc1nc(-c2cc3cc(Br)ccc3o2)cs1)Nc1ccccc1F` , kindly confirm whether its IC50 is beneath 30 µM.
-- reply Met

-- ask Confirm or reject: IC50 of `COc1cccc(NC(=O)Nc2nc(-c3cc4cc(Br)ccc4o3)cs2)c1` lies strictly below 30 µM
-- reply Met

-- ask Threshold test, IC50 < 30 µM: `O=C(Nc1ccc(Cl)cc1)Nc1nc(-c2cc3cc(Br)ccc3o2)cs1`
-- reply Not met

-- ask Problem: For the compound `O=C(Nc1ccc(I)cc1)Nc1nc(-c2cc3cc([N+](=O)[O-])ccc3o2)cs1` , is IC50 under 30 µM?
-- reply Met

-- ask Does the reported IC50 of the following compound sit strictly below 30 µM? `O=C(Nc1ccc(Cl)cc1)Nc1nc(-c2cc3cc([N+](=O)[O-])ccc3o2)cs1`
-- reply Met

-- ask Is IC50 strictly under 30 µM for the entry `O=C(Nc1ccccc1)Nc1nc(-c2cc3cc(Br)ccc3o2)cs1` ?
-- reply Not met

-- ask A record lists `O=C(Nc1ccc(F)cc1)Nc1nc(-c2cc3cc(Br)ccc3o2)cs1` . Is its IC50 below 30 µM?
-- reply Not met

-- ask Item `O=C(Nc1cccc(F)c1)Nc1nc(-c2cc3ccccc3o2)cs1` : IC50 beneath 30 µM, strictly?
-- reply Met

-- ask In plain terms, does `O=C(Nc1ccc(F)cc1)Nc1nc(-c2cc3cc([N+](=O)[O-])ccc3o2)cs1` come in under 30 µM for IC50?
-- reply Not met

-- ask Say whether its IC50 is strictly beneath 30 µM. Entry: `COc1ccccc1NC(=O)Nc1nc(-c2cc3cc(Br)ccc3o2)cs1`
-- reply Not met

-- ask Is IC50 strictly under 30 µM for the entry `O=C(Nc1cccc([N+](=O)[O-])c1)Nc1nc(-c2cc3cc(Br)ccc3o2)cs1` ?
-- reply Not met

Sourced from ChEMBL document CHEMBL3616456
